- Tested on: MOLT-4 leukemia
- testDetails: NCI tumour cell line growth inhibition, 48 h
quantity: TGI

Observe how each entry below is paired with its result.
1) O=C1NC(=O)C2C(=O)NC(=O)C1C2(c1ccccc1)c1cc[nH]c1 (stereo not given) = > 100 µM
2) COc1cc(/C=C2\C[C@H]3[C@@H]4CC=C5C=C(N6CCCC6)CC[C@]5(C)[C@H]4CC[C@]3(C)C2=O)cc(OC)c1OC = > 28 µM
3) Cc1ccc(-n2c3c(c4c(CN(C)C)c(O)ccc42)CCc2ccccc2C3=O)cc1 = 39.3 µM
4) COc1ccc(C(=O)Cn2c(C(=O)/C=C/c3ccco3)nc3ccccc32)cc1 = > 100 µM

input: GET /values?readout=TGI&item= N#Cc1c(NN)nc(NN)c(C#N)c1-c1ccccc1
output: > 100 µM

---

- Tested on: SK-MEL-28 melanoma
- testDetails: NCI tumour cell line growth inhibition, 48 h
Please respond with reported GI50 for every item in the list.

Observe how each entry below is paired with its result.
1) O=C1C(=O)c2ccccc2C(O)=C1CC=C(Br)Br = 12.8 µM
2) Nc1c(Br)cc(Br)c2c1[nH]c(=O)c1ccccc12 = > 45.9 µM
3) CCOc1ccc(-c2nonc2NC(=O)c2cccc(C)c2)cc1OCC = > 100 µM
4) Cc1c(-c2c(-c3ccc(F)o3)sc3ncnc(O[C@H](Cc4ccccc4OCc4ccnn4CC(F)(F)F)C(=O)O)c23)ccc(OCCN2CCN(C)CC2)c1Cl = 3.84 µM
5) O=C(CN1CCN(CCCOc2c(-c3ccccc3)oc3ccccc3c2=O)CC1)Nc1ccc(Cl)cc1C(=O)c1ccccc1Cl = 3.66 µM
6) O=C1c2cc3c(cc2-c2c1c1ccc(Cl)cc1c(=O)n2CCCNCCO)OCO3 = 1.43 µM
7) CC(=O)[CH-]C(=O)c1ccccc1.CC(=O)[CH-]C(=O)c1ccccc1.CC1(C)C2CCC1(C)C([O-])C2.CC1(C)C2CCC1(C)C([O-])C2.[Ti+4] = 34.1 µM
8) O=C(Nc1cc(Cl)cc(Cl)c1)c1ccc(NC2=C(Cl)C(=O)N(Cc3ccc(Cl)cc3Cl)C2=O)cc1 = 21.4 µM

Hey, can you go through the list below and give me GI50 for every item?
1. CC1(C)N=C(N)N=C(N)N1c1ccc(OCCCCOc2ccc(S(=O)(=O)F)cc2)c(Cl)c1
2. O=c1ccc2nc(-c3ccccc3)nn(-c3ccccn3)c-2c1
3. COc1cc2cc(Oc3ccc(NC(=O)Nc4cccc(C(F)(F)F)c4)cc3)c(C)nc2cc1OC

output:
["0.559 µM", "12.3 µM", "1.97 µM"]

---

- Test system: SK-MEL-5 melanoma
- testDetails: NCI tumour cell line growth inhibition, 48 h
quantity: GI50

Observe how each entry below is paired with its result.
1. O=C(CN1CCN(CCCOc2c(-c3ccccc3)oc3ccccc3c2=O)CC1)Nc1ccc(Cl)cc1C(=O)c1ccccc1Cl = 5.93 µM
2. CC(C)[C@H](CO)Nc1nc(Nc2ccc(C(=O)NCCNS(=O)(=O)c3cccc4c(N(C)C)cccc34)c(Cl)c2)c2ncn(C(C)C)c2n1 = 2.07 µM

Hey, can you go through the list below and give me GI50 for every item?
1. Cc1c(-c2c(-c3ccc(F)o3)sc3ncnc(O[C@H](Cc4ccccc4OCc4ccnn4CC(F)(F)F)C(=O)O)c23)ccc(OCCN2CCN(C)CC2)c1Cl
2. COc1cc(-c2nn(-c3cccc(NC(=O)Nc4cc(C(F)(F)F)cc(C(F)(F)F)c4)c3)cc2-c2ccncc2)ccc1Cl

output:
1. 3.13 µM
2. 0.629 µM
